Species on record: Rattus norvegicus
Protocol text: DrugMatrix - Regimen: Daily Repeat
Type: toxicity, organism-based, Sprague-Dawley
Parameters: regimen Daily Repeat, gender Male, age 6-8 weeks
Measurement setup: in vivo, iv, 0 mg/kg, 72 h, tissue Plasma, dose level Control, time 3 day, vehicle 100 % SALINE
Property measured: LACTATE DEHYDROGENASE (u/L)

INSERT INTO measurements (molecule, endpoint_unit, assay_value) VALUES
  ('C[N+](C)(C)CCOC(=O)CCC(=O)OCC[N+](C)(C)C.[Cl-].[Cl-] [SUCCINYLCHOLINE CHLORIDE]', 'u/L', 245.17),
  ('N=C(N)c1ccc(OCCCCCOc2ccc(C(=N)N)cc2)cc1', 'u/L', 245.17),
  ('O=c1[nH]c(=O)n([C@H]2C[C@H](O)[C@@H](CO)O2)cc1F', 'u/L', 578.5),
  ('O=C(O)P(=O)(O)O', 'u/L', 536.83);
